Tested on: DU-145 prostate
protocolSummary: NCI tumour cell line growth inhibition, 48 h; in the data active = GI50 below about 0.43 µM; inactive = the rest
Field 'call' accepts active, inactive

smilesData | label
Cc1nc2sc(C(=O)Nc3ccccc3)c(N)c2cc1C(=O)c1ccccc1 | inactive

[Q] # fetch the recorded call for Cc1cc2nc(-c3ccc(O)c(O)c3)n(Cc3ccc(O)c(O)c3)c2cc1C here
[A] inactive

[Q] # fetch the recorded call for O=C(N/N=C/c1ccc(N(CCCl)CCCl)cc1)c1ccc(C(=O)N/N=C/c2ccc(N(CCCl)CCCl)cc2)cc1 here
[A] active

[Q] # fetch the recorded call for Cn1cc(-c2csc(-c3cn(C(=O)OC(C)(C)C)c4ccccc34)n2)c2cccnc21 here
[A] inactive

[Q] # fetch the recorded call for CCCCCCCCc1cc(O)ccc1O here
[A] inactive
